tested on: HEK-293T; experiment: Multiplex assay against HEK293T; type: toxicity, cell-based; settings: human, 24 h, 1 µM, compound concentration 1 uM, replicate 2;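 for Population Tubulin-Different-Phenotype (%): share of the cells with healthy nuclei that show this phenotype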
Label T when Population Tubulin-Different-Phenotype (%) >= 20%; otherwise F.

N#Cc1cnc(Nc2cc(NC[C@H]3CNCCO3)c(C(F)(F)F)cn2)cn1 [SRA-737] | F
CC(=O)c1cc(-c2cc(C(=O)NC3CC3)ccc2C)c2ncccn12 | T
Nc1nc2c(c(N3CCNCC3)n1)CCC1=C2[C@@H]2CCCC[C@@H]2O1 | T
Cc1cn(-c2cc(NC(=O)c3ccc4c(c3)CN(c3cncnc3)C[C@@H]4C)cc(C(F)(F)F)c2)cn1 | F
O=C(O)c1ccc2cc(-c3ccc(O)c(C45CC6CC(CC(C6)C4)C5)c3)ccc2c1 [O-DEMETHYLATED ADAPALENE] | T
COc1cc(N2CCC(N(C)C)CC2)ccc1Nc1ncc(Cl)c(Nc2ccccc2P(C)(C)=O)n1 | F
CCOc1cc2ncc(C#N)c(Nc3ccc(OCc4cccc(F)c4)c(Cl)c3)c2cc1NC(=O)/C=C/CN(C)C [HKI-357] | F
CC(C)Oc1ccc(C(=O)N[C@H](CNC(=O)CN(C)C)Cc2ccc(-c3cn4cccc([C@H](C)O)c4n3)cc2)cc1Cl [GSK-923295A] | T
Cc1cc2c(cc1N1C(=O)c3cccc4c(CCCO)ccc(c34)C1=O)n(C)c(=O)n2C | T
CNC(=O)c1nn(C)c2c1C(C)(C)Cc1cnc(Nc3ccc(N4CCN(C)CC4)cc3)nc1-2 [MILCICLIB] | T
Nc1ccc(C(=O)Nc2cccc(-c3nc(N4CCOCC4)c4oc5ncccc5c4n3)c2)cn1 | T
CN(C)CCOc1ccc(-c2nc(-c3ccncc3)c(-c3ccc4c(c3)CC/C4=N\O)[nH]2)cc1 [SB590885] | T

----------
tested on: HEK-293T; test: Multiplex assay against HEK293T; format: toxicity, cell-based; conditions: human, 48 h, 1 µM, compound concentration 1 uM, replicate 2
Rule: Population Pyknosed Nuclei (%) below 10% gives label 1. Equal to or above 10% gives label 0.

Nc1ccc(C(=O)Nc2cccc(-c3nc(N4CCOCC4)c4oc5ncccc5c4n3)c2)cn1 | label 0
COc1ccc(NS(=O)(=O)c2sc3ccc(Cl)cc3c2C)cc1N1CCNCC1.Cl | label 0
CCC(=O)O[C@]1(C(=O)SCF)[C@H](C)C[C@H]2[C@@H]3C[C@H](F)C4=CC(=O)C=C[C@]4(C)[C@@]3(F)[C@@H](O)C[C@@]21C [FLUTICASONE PROPIONATE] | label 0
Nc1nc2c(c(N3CCNCC3)n1)CCC1=C2[C@@H]2CCCC[C@@H]2O1 | label 0
CCc1cc2c(cc1CC)CC(NC[C@H](O)c1ccc(O)c3[nH]c(=O)ccc13)C2 | label 0
Cc1cc2c(cc1N1C(=O)c3cccc4c(CCCO)ccc(c34)C1=O)n(C)c(=O)n2C | label 1
CCn1c(-c2nonc2N)nc2cnc(Oc3cccc(NC(=O)c4ccc(OCCN5CCOCC5)cc4)c3)cc21 [GSK-269962A] | label 0
O=C(O)c1ccc2cc(-c3ccc(O)c(C45CC6CC(CC(C6)C4)C5)c3)ccc2c1 | label 1
CNc1oc(-c2cccc3ccccc23)nc1C#N | label 1
CC(=O)c1cc(-c2cc(C(=O)NC3CC3)ccc2C)c2ncccn12 | label 0
Cl.Cl.Nc1ncnc2c1c(-c1cccc(OCc3ccccc3)c1)cn2[C@H]1C[C@@H](CN2CCC2)C1 | label 0
CCCn1c(=O)c2[nH]c(C34CC5CC(CC3C5)C4)nc2n(CCC)c1=O | label 0
COc1cc2c(NC3CCN(C(C)C)CC3)nc(N3CCC(F)(F)CC3)nc2cc1OCCCN1CCCC1 | label 0
Cc1nc(Cc2cccc(C(F)(F)F)c2)sc1-c1ccc(C(N)=O)nc1 [TP-024n] | label 0

----------
system: HEK-293T; experiment: Multiplex assay against HEK293T; type: toxicity, cell-based; conditions: human, 12 h, 1 µM, compound concentration 1 uM, replicate 1
Label t when Population Normal (%) >= 80%; otherwise f.

CN(C)C/C=C/C(=O)Nc1cc2c(Nc3ccc(F)c(Cl)c3)ncnc2cc1O[C@H]1CCOC1.O=C(O)/C=C\C(=O)O.O=C(O)/C=C\C(=O)O [AFATINIB DIMALEATE] | t
CC(=O)c1cc(-c2cc(C(=O)NC3CC3)ccc2C)c2ncccn12 | t
Cl.Cl.Nc1ncnc2c1c(-c1cccc(OCc3ccccc3)c1)cn2[C@H]1C[C@@H](CN2CCC2)C1 | f
Cc1cc2c(cc1N1C(=O)c3cccc4c(CCCO)ccc(c34)C1=O)n(C)c(=O)n2C | t
N#Cc1cnc(Nc2cc(NC[C@H]3CNCCO3)c(C(F)(F)F)cn2)cn1 | t
CN(C)CCOc1ccc(-c2nc(-c3ccncc3)c(-c3ccc4c(c3)CC/C4=N\O)[nH]2)cc1 | f

----------
system: Fibroblast; experiment: Multiplex assay against human fibroblast; format: toxicity, cell-based; settings: 24 h, 10 µM, compound concentration 10 uM, replicate 2
Assay metric: Population Healthy Nuclei (%)

Nc1ccc(C(=O)Nc2cccc(-c3nc(N4CCOCC4)c4oc5ncccc5c4n3)c2)cn1 | 5%
Cl.Cl.NC1(c2ccc(-c3nc4ccn5c(=O)[nH]nc5c4cc3-c3ccccc3)cc2)CCC1 | 14%
COc1ccc(NS(=O)(=O)c2sc3ccc(Cl)cc3c2C)cc1N1CCNCC1.Cl | 47%
CN(C)CCOc1ccc(-c2nc(-c3ccncc3)c(-c3ccc4c(c3)CC/C4=N\O)[nH]2)cc1 | 28%
COc1cc2c(Nc3ccc(NC(=O)c4ccccc4)cc3)ncnc2cc1OCCCN1CCOCC1 | 25%
CCOc1cc2ncc(C#N)c(Nc3ccc(OCc4cccc(F)c4)c(Cl)c3)c2cc1NC(=O)/C=C/CN(C)C | 19%
Cc1nc(Cc2cccc(C(F)(F)F)c2)sc1-c1ccc(C(N)=O)nc1 [TP-024n] | 58%
Cl.Cl.Nc1ncnc2c1c(-c1cccc(OCc3ccccc3)c1)cn2[C@H]1C[C@@H](CN2CCC2)C1 | 35%
N#Cc1cnc(Nc2cc(NC[C@H]3CNCCO3)c(C(F)(F)F)cn2)cn1 | 26%
COc1cc2c(NC3CCN(C(C)C)CC3)nc(N3CCC(F)(F)CC3)nc2cc1OCCCN1CCCC1 | 59%
CNC(=O)c1cc(Oc2ccc(NC(=O)Nc3cc(C(C)(C)C)nn3-c3ccc4ncccc4c3)c(F)c2)ccn1 | 22%
CCCn1c(=O)c2[nH]c(C34CC5CC(CC3C5)C4)nc2n(CCC)c1=O | 58%
CCOc1cc(N2CCC(O)CC2)ccc1Nc1ncc2c(n1)N(C1CCCC1)CCC(=O)N2C | 50%
Cc1cn(-c2cc(NC(=O)c3ccc4c(c3)CN(c3cncnc3)C[C@@H]4C)cc(C(F)(F)F)c2)cn1 | 20%
O=C(O)c1ccc2cc(-c3ccc(O)c(C45CC6CC(CC(C6)C4)C5)c3)ccc2c1 | 81%
CC(C)N1CCC(C)(C)c2cc(C#Cc3ccc(C(=O)O)cc3)ccc21 | 47%
CCc1cc2c(cc1CC)CC(NC[C@H](O)c1ccc(O)c3[nH]c(=O)ccc13)C2 | 67%

----------
tested on: U2OS; experiment: Multiplex assay against U2OS; type: toxicity, cell-based; details: human, 12 h, 10 µM, compound concentration 10 uM, replicate 2
Label yes when Population Mitotic Cells (%) >= 40%; otherwise no.

CCCn1c(=O)c2[nH]c(C34CC5CC(CC3C5)C4)nc2n(CCC)c1=O | yes
COc1cc2c(Nc3ccc(NC(=O)c4ccccc4)cc3)ncnc2cc1OCCCN1CCOCC1 | yes
Cc1cn(-c2cc(NC(=O)c3ccc4c(c3)CN(c3cncnc3)C[C@@H]4C)cc(C(F)(F)F)c2)cn1 | no
Cc1nc(Cc2cccc(C(F)(F)F)c2)sc1-c1ccc(C(N)=O)nc1 [TP-024n] | no
CCOc1cc2ncc(C#N)c(Nc3ccc(OCc4cccc(F)c4)c(Cl)c3)c2cc1NC(=O)/C=C/CN(C)C | no
CC(C)N1CCC(C)(C)c2cc(C#Cc3ccc(C(=O)O)cc3)ccc21 | no
CNc1oc(-c2cccc3ccccc23)nc1C#N | no
O=C(O)c1ccc2c(c1)nc(Nc1cccc(Cl)c1)c1ccncc12 | yes
COc1cc2c(NC3CCN(C(C)C)CC3)nc(N3CCC(F)(F)CC3)nc2cc1OCCCN1CCCC1 | no
Cl.Cl.NC1(c2ccc(-c3nc4ccn5c(=O)[nH]nc5c4cc3-c3ccccc3)cc2)CCC1 | yes
CNC(=O)c1cc(Oc2ccc(NC(=O)Nc3cc(C(C)(C)C)nn3-c3ccc4ncccc4c3)c(F)c2)ccn1 | yes
O=C(O)c1ccc2cc(-c3ccc(O)c(C45CC6CC(CC(C6)C4)C5)c3)ccc2c1 | no
Nc1ccc(C(=O)Nc2cccc(-c3nc(N4CCOCC4)c4oc5ncccc5c4n3)c2)cn1 | yes
